Data provenance is patent US6329392A.

- Measured On: NK1 receptor (Cavia porcellus, UniProt P30547)
- Construct: as evaluated in guinea pig lungs (Keystone Biologicals, Cleveland, Ohio); tissue Keystone Biologicals, Cleveland, Ohio; host or cells: guinea pig lung membranes
- Sequence (P30547 whole entry): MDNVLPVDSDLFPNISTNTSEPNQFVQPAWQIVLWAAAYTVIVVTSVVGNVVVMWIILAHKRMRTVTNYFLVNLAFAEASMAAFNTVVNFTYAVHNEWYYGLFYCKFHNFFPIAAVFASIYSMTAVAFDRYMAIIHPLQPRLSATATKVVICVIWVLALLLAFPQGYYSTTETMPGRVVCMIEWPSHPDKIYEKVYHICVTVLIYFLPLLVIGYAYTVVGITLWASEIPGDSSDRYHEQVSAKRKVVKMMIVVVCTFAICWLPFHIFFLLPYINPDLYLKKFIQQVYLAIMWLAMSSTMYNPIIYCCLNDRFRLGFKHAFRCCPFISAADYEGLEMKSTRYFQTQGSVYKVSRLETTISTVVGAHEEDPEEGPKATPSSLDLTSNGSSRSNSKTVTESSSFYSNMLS
- Experimental Protocol: Antagonism of iodinated tachykinin (substance P) binding to NK1 receptors in guinea pig lungs
- Experimental Setup: read-out: NK1 Receptor Binding Affinity, IC50
pIC50: −log10 of the molar value.
Measure Name: pIC50

CCOCCn1c(C(=O)C2CCN(CCC3(c4ccc(Cl)c(Cl)c4)CCN(C(=O)c4cc(OC)c(OC)c(OC)c4)C3)CC2)nc2ccccc21 (stereo not drawn)
7.51
CC(C)Oc1cccc(CC(=O)N2CCCC(CCN3CCC(C(=O)c4nc5ccccc5n4Cc4ccc(F)cc4)CC3)(c3ccc(Cl)c(Cl)c3)C2)c1 (stereo not drawn)
6.55
COc1ccc(C2(CCN3CCC(O)(c4nc5ccccc5n4Cc4ccc(F)cc4)CC3)CCN(C(=O)c3cc(OC)c(OC)c(OC)c3)C2)cc1OC (stereo not drawn)
7.60
